Target: T1, biotinylated GITR (human, UniProt Q9Y5U5 26-161, limits assumed, biotinylated (sites not given))
T1 construct: also called GITR-bio; Biotin-GITR
T1 sequence: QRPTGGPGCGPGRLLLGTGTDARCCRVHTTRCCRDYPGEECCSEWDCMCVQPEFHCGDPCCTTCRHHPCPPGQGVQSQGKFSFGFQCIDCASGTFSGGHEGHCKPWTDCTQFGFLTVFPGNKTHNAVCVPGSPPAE
Test: BLI (Octet), biotin-GITR on streptavidin tips, antibody supernatant
experimentalEndpoint: koff (s⁻¹)
Kindly provide the numeric value in s⁻¹ only, without the unit symbol.

Sample germline variant antibody 10 (H1916A11 / K1916A11) (antibody, V domains shown, IGHG1/IGKC expression vectors; measured from CHO culture supernatant; also called Antibody ID 10) VH: QVQLVQSGAEVKKPGASVKVSCKASGYTFTEYAMYWVRQAPGQGLEWMGLIRTYSGGVSYNQKFRGRVTMTVDKSISTAYMELSRLRSDDTAVYYCAKSGTVRGFAYWGQGTLVTVSS VL: DIVMTQSPDSLAVSLGERATINCKSSQSLLNSSNQKNYLSWYQQKPGQPPKLLIYWASTRESGVPDRFSGSGSGTDFTLTISSVQAEDVAVYHCQNDYSYPYTFGQGTKLEIK ; koff observed: 0.00056

Sample germline variant antibody 58 (H1916G04 / K1916G04) (antibody, V domains shown, IGHG1/IGKC expression vectors; measured from CHO culture supernatant; also called Antibody ID 58) VH: QVQLVQSGAEVKKPGASVKVSCKGSGYTFTDYAMYWVRQAPGQGLEWMGVIRTYSGGVTYNQKFKGRATMTVDKSISTAYMELSRLRSDDTAVYYCAKSGTVRGFAYWGQGTLVTVSS VL: DIVMTQSPDSLAVSLGERATINCKSSQSLLNSGNQKNYLSWYHQKPGQPPKLLIYWASTRESGVPDRFSGSGSGTDFTLTISSVQAEDVAVYHCQNDYSYPYTFGQGTKLEIK ; koff observed: 0.000415

Sample germline variant antibody 1 (H1916A01 / K1916A01) (antibody, V domains shown, IGHG1/IGKC expression vectors; measured from CHO culture supernatant; also called Antibody ID 1) VH: QVQLVQSGTEVKKPGASVKVSCKGSGYTFTEYAMYWVRQAPGQGLEWIGVIRTYSGGVTYNQKFQGRATMTVDTSISTAYMELSRLRSDDTAVYYCAKSGTVRGFAYWGQGTLVTVSS VL: DIVMTQSPDSLAVSLGERATINCKSSQSLLNSGNQKNYLTWYHQKPGQPPKMLIYWASTRESGVPDRFSGSGSGTDFTLTISSVQAEDVAVYHCQNDYSYPYTFGQGTKLEIK ; koff observed: 0.000348

Sample germline variant antibody 25 (H1916C07 / K1916C07) (antibody, V domains shown, IGHG1/IGKC expression vectors; measured from CHO culture supernatant; also called Antibody ID 25) VH: QVQLVQSGAEVKKPGASVKVSCKASGYTFTEYAMYWVRQAPGQGLEWMGLIRTFSGGVSYNQKFRGRATMTVDTSISTAYMELSRLRSDDTAVYYCAKSGTVRGFAYWGQGTLVTVSS VL: DIVMTQSPDSLAVSLGERATINCKSSQSLLNSGNQKNYLTWYQQKPGQPPKMLIYWASTRESGVPDRFTGSGSGTDFTLTISSVQAEDVAVYYCQNDYSFPYTFGQGTKLEIK ; koff observed: 0.000632

Sample germline variant antibody 29 (H1916C11 / K1916C11) (antibody, V domains shown, IGHG1/IGKC expression vectors; measured from CHO culture supernatant; also called Antibody ID 29) VH: QVQLVQSGAEVKKPGASVKVSCKGSGYTFTDYAMYWVRQAPGQGLEWIGVIRTFSGGVTYNQKFKGRATMTVDTSISTAYMELSRLRSDDTAVYYCAKSGTVRGFAYWGQGTLVTVSS VL: DIVMTQSPDSLAVSLGERATINCKSSQSLLNSSNQKNYLSWYQQKPGQPPKLLIYWASTRESGVPDRFSGSGSGTDFTLTISSLQAEDVAVYHCQNDYSYPYTFGQGTKLEIK ; koff observed: 0.000313

Sample germline variant antibody 105 (H1917H07 / K1917H07) (antibody, V domains shown, IGHG1/IGKC expression vectors; measured from CHO culture supernatant) VH: QVQLVQSGAEVKKPGASVKVSCKGSGYTFTEYAMYWVRQAPGQGLEWMGLIRTFSGGVSYNQKFKGRVTMTVDTSISTAYMELSRLRSDDTAVYYCAKSGTVRGFAYWGQGTLVTVSS VL: DIVMTQSPDSLAVSLGERATINCKSSQSLLNSGNQKNYLSWYQQKPGQPPKLLIYWASTRESGVPDRFSGSGSGTDFTLTISSVQAEDVAVYYCQNDYSYPYTFGQGTKLEIK ; koff observed: 0.000486

Sample germline variant antibody 76 (H1917C10 / K1917C10) (antibody, V domains shown, IGHG1/IGKC expression vectors; measured from CHO culture supernatant; also called Antibody ID 76) VH: QVQLVQSGAGVKKPGASVKVSCKGSGYTFTDYAMHWVRQAPGQGLEWMGLIRTFSGDVSYNQKFRERATMTVDKSISTAYMELSRLRSDDTAVYYCAKSGTVRGFAYWGQGTLVTVSS VL: DIVMTQSPDSLAVSLGERATINCKSSQSLLNSGNQKNYLSWYQQKPGQPPKMLIYWASTRESGVPDRFSGSGSGTDFTLTISSVQAEDVAVYHCQNDYSFPYTFGQGTKLEIK ; koff observed: 0.00105

Sample germline variant antibody 97 (H1917G07 / K1917G07) (antibody, V domains shown, IGHG1/IGKC expression vectors; measured from CHO culture supernatant; also called Antibody ID 97) VH: QVQLVQSGTEVKKPGASVKVSCKGSGYTFTEYAMHWVRQAPGQGMEWIGLIRTFSGGLSYNQKFRDRVTMTVDKSISTAYMELSRLRSDDTAVYYCAKSGTVRGFAYWGQGTLVTVSS VL: DIVMTQSPDSLAVSLGERATINCKSSQSLLNSGNQKNYLTWYHQKPGQPPKLLIYWASTRESGVPDRFTGSGSGTDFTLTISSVQAEDVAVYHCQNEYSFPYTFGQGTKLEIK ; koff observed: 0.000761

Sample germline variant antibody 4 (H1916A05 / K1916A05) (antibody, V domains shown, IGHG1/IGKC expression vectors; measured from CHO culture supernatant; also called Antibody ID 4) VH: QVQLVQSGAEVKKPGASVKVSCKASGYTFTEYAMYWVRQAPGQSLEWMGLIRTFSGDVSYNQKFQDRVTMTVDKSISTAYMELSRLRSDDTAVYYCAKSGTVRGFAYWGQGTLVTVSS VL: DIVMTQSPDSLAVSLGERATINCKSSQSLLNSSNQKNYLSWYHQKPGQPPKLLIYWASTRESGVPDRFTGSGSGTDFTLTISSVQAEDVAVYYCQNDYSYPYTFGQGTKLEIK ; koff observed: 0.000501

Sample germline variant antibody 9 (H1916A10 / K1916A10) (antibody, V domains shown, IGHG1/IGKC expression vectors; measured from CHO culture supernatant; also called Antibody ID 9) VH: QVQLVQSGAEVKKPGASVKVSCKASGYTFTGYAMYWVRQAPGQGLEWMGLIRTYSGEVSYNQKFRGRATMTVDKSISTAYMELSRLRSDDTAVYYCAKSGTVRGFAYWGQGTLVTVSS VL: DIVMTQSPDSLAVSLGERATINCKSSQSLLNSGNQKNYLTWYQQKPGQPPKMLIYWASTRESGVPDRFSGSGSGTDFTLTISSLQAEDVAVYHCQNDYSFPYTFGQGTKLEIK ; koff observed: 0.000784
